target: GST-GK derived from human liver GK (Homo sapiens); construct: made in house; host or cells: Escherichia coli DH5α; experiment: In vitro GK activating action measurement test; assay type: biochemical; settings: 10 min; test compound 1 μmol/L, glucose 2.5 mmol/L, 25° C.; read-out: GK activation rate (%)
Sequence (P35557 1-466 isoform P35557-2): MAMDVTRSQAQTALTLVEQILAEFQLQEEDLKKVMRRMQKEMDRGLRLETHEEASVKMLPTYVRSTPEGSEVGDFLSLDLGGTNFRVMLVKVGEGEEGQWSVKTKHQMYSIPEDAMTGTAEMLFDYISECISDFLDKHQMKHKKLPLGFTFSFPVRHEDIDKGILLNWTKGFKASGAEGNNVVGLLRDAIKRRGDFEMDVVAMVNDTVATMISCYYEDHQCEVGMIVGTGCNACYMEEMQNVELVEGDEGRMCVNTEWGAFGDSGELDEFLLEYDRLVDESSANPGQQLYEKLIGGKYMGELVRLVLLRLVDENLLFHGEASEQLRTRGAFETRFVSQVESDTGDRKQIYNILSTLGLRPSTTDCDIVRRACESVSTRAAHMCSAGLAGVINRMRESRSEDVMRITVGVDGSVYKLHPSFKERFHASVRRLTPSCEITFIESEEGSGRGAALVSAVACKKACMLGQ
parameter: activity at 1 µM (%)
Give the value, in units of %, as a plain number.

(Q) Item under review: CNC(=O)C(=O)N1CC[C@H](C[C@@H](C(=O)Nc2ncc(F)s2)c2ccc(S(=O)(=O)C3CC3)cc2)C1 . Reported activity at 1 µM?
(A) 427

(Q) // lookup activity at 1 µM for CCNC(=O)N1CC[C@H](C[C@@H](C(=O)Nc2ncc(F)s2)c2ccc(S(=O)(=O)C3CC3)cc2)C1
(A) 561

(Q) I am curious: what activity at 1 µM value has been reported for O=C(Nc1ncc(F)s1)[C@H](C[C@H]1CCN(C(=O)NO)C1)c1ccc(S(=O)(=O)C2CC2)cc1 ?
(A) 602

(Q) Reported activity at 1 µM for CC(=O)N1CC[C@H](C[C@@H](C(=O)Nc2ccc(C)cn2)c2ccc(S(=O)(=O)C3CC3)cc2)C1 : what is it?
(A) 491

* * *

assay: Evaluation of organ selectivity (non-binding drug concentration in liver and pancreas after oral administration); format: in vivo, normal mice (C57BL/6j mice); settings: C57BL/6j, mouse, liver and pancreas, mice, dose 30 mg/kg, 150 minutes after administration
The entries below come with measured selectivity ratio at 150 min values attached.
Please reply with the number alone, leaving off any unit.

(Q) Which selectivity ratio at 150 min value belongs to CCNC(=O)N1CC[C@H](C[C@@H](C(=O)Nc2ncc(F)s2)c2ccc(S(=O)(=O)C3CC3)cc2)C1 [Example 5] ?
(A) 27

(Q) Could you share which selectivity ratio at 150 min value was measured for CNC(=O)N1CC[C@H](C[C@@H](C(=O)Nc2ncc(F)s2)c2ccc(S(=O)(=O)C3CC3)cc2)C1 [Example 2] ?
(A) 41

* * *

assay: Evaluation of organ selectivity (non-binding drug concentration in liver and pancreas after oral administration); type: in vivo, normal mice (C57BL/6j mice); details: C57BL/6j, mouse, liver and pancreas, mice, dose 10 mg/kg, 150 minutes after administration
Below, each entry is listed alongside its reported selectivity ratio at 150 min.
Format: numeric value only, no unit, no commentary.

- CNC(=O)N1CC[C@H](C[C@@H](C(=O)Nc2ccc(C)cn2)c2ccc(S(=O)(=O)C3CC3)cc2)C1 [Example 19]: 17
- CC(=O)N1CC[C@H](C[C@@H](C(=O)Nc2ncc(F)s2)c2ccc(S(=O)(=O)C3CC3)cc2)C1 [Example 3]: 17

Okay, now this compound:
(Q) Entry Cc1ccc(NC(=O)[C@H](C[C@H]2CCN(C(N)=O)C2)c2ccc(S(=O)(=O)C3CC3)cc2)nc1 [Example 21] has what selectivity ratio at 150 min?
(A) 25
